Target: recombinant human S1P1 receptor (Homo sapiens)
Sequence (P21453 whole entry): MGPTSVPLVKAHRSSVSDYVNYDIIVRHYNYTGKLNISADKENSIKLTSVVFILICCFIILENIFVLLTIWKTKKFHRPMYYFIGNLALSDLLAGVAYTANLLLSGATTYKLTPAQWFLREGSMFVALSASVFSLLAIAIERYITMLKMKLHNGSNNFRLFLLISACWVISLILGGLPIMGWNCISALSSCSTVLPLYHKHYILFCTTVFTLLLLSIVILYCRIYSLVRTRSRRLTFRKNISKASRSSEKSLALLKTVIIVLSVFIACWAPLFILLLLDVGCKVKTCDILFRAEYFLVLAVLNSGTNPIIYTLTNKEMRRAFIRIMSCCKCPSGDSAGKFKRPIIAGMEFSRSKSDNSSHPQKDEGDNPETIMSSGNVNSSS
Experiment: GTPγS assay to determine EC50 values
Details: 35S-GTPγS binding, membrane preparations of CHO cells expressing recombinant human S1P1 receptor, pH 7.4
pEC50: −log10 of the molar value.
Overview of reported pEC50 across a group of compounds:
Assay endpoint: pEC50

>>> print(df.to_string())
                                   compound                        measurement_target  result_value
0  CCCc1sc(C(=O)CCc2cc(C)c(OC[C@@H](O)CO)c(C)c2)cc1-c1ccccc1  recombinant human S1P1 receptor (Homo sapiens)          7.79
1  CCc1sc(C(=O)CCc2cc(C)c(OC[C@@H](O)CO)c(C)c2)cc1-c1ccccc1C  recombinant human S1P1 receptor (Homo sapiens)          8.20
2  CCc1ccccc1-c1cc(C(=O)CCc2cc(C)c(OC[C@@H](O)CO)c(C)c2)sc1CC  recombinant human S1P1 receptor (Homo sapiens)          8.03
3  CCc1sc(C(=O)CCc2cc(C)c(OC[C@@H](O)CO)c(C)c2)cc1-c1ccccc1  recombinant human S1P1 receptor (Homo sapiens)          8.17
4  CCc1sc(C(=O)CCc2cc(C)c(OC[C@@H](O)CO)c(C)c2)cc1-c1ccccc1OC  recombinant human S1P1 receptor (Homo sapiens)          7.94
5  CCc1sc(C(=O)CCc2cc(C)c(CC(O)CO)c(C)c2)cc1-c1ccccc1 (stereo not drawn)  recombinant human S1P1 receptor (Homo sapiens)          7.74
